Tested on: 653999-131-R-J2-PDC complex spheroids, growth % test/control
procedure_details: Anticancer human tumor 653999-131-R-J2-PDC patient-derived lung adenocarcinoma cell line growth inhibition [AhR]
experimental_conditions: second compound 1 µM; first compound 0.1 µM; stronger effect = lower value
recorded_metric: viability, T/C (%)
Reply with just the number (in %).

compound	value
CC1COCCN1c1cc(-c2ccnn2C)c2ccnc(-c3ccn[nH]3)c2n1 (configuration not stated) + CC(CO)NC(=O)c1cc(-c2ccc(Cl)cc2)nn(-c2cnn(C)c2)c1=O	60.1

Kindly note the recorded viability, T/C for COc1cc(Nc2ncc3c(n2)-c2ccc(Cl)cc2C(c2c(F)cccc2OC)=NC3)ccc1C(=O)O + CC(CO)NC(=O)c1cc(-c2ccc(Cl)cc2)nn(-c2cnn(C)c2)c1=O , which is 76.1

Memo: NS(=O)(=O)OCC1CC(n2ccc3c(NC4CCc5ccccc54)ncnc32)CC1O (configuration not stated) + Cc1ccccc1N=Nc1ccc(NC(=O)c2ccnn2C)c(C)c1 , reported viability, T/C: 119

Reported viability, T/C for CC[C@@]1(O)C(=O)OCc2c1cc1n(c2=O)Cc2cc3c(CN(C)C)c(O)ccc3nc2-1 + CC(CO)NC(=O)c1cc(-c2ccc(Cl)cc2)nn(-c2cnn(C)c2)c1=O was 32.3

viability, T/C for NS(=O)(=O)OCC1CC(n2ccc3c(NC4CCc5ccccc54)ncnc32)CC1O (configuration not stated) + Cc1cncc(-c2nc(NCCc3c[nH]c4ccccc34)c3ncn(C(C)C)c3n2)c1 is 120

// viability, T/C lookup, compound = COc1cc(C2c3cc4c(cc3C(OC3OC5COC(C)OC5C(O)C3O)C3COC(=O)C23)OCO4)cc(OC)c1O (configuration not stated) + Cc1cncc(-c2nc(NCCc3c[nH]c4ccccc34)c3ncn(C(C)C)c3n2)c1 , result: 84.3

viability, T/C reading for COc1cc(C2c3cc4c(cc3C(OC3OC5COC(C)OC5C(O)C3O)C3COC(=O)C23)OCO4)cc(OC)c1O (configuration not stated) + Cc1ccccc1N=Nc1ccc(NC(=O)c2ccnn2C)c(C)c1 : 72.6

* * *

Tested on: 653999-131-R-J2-PDC complex spheroids, growth % test/control
procedure_details: Anticancer human tumor 653999-131-R-J2-PDC cell line growth inhibition [AhR];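 note: spheroids exposed to agents for seven days; 100% = DMSO vehicle control viability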
experimental_conditions: second compound 3.16 µM; first compound 0.0949 µM; stronger effect = lower value
recorded_metric: viability, T/C

Solved cases below.
>>> df
                                   compound  value
0  Nc1ncn(C2CC(O)C(CO)S2)c(=O)n1 (stereo not drawn) + Cc1cncc(-c2nc(NCCc3c[nH]c4ccccc34)c3ncn(C(C)C)c3n2)c1  66.5%
1  Nc1ncn(C2CC(O)C(CO)S2)c(=O)n1 (stereo not drawn) + Cc1ccccc1N=Nc1ccc(NC(=O)c2ccnn2C)c(C)c1  95.8%

Now look at this entry.
Recorded viability, T/C (compound O=C(C=Cn1cnc(-c2cc(C(F)(F)F)cc(C(F)(F)F)c2)n1)NNc1cnccn1 + CC(CO)NC(=O)c1cc(-c2ccc(Cl)cc2)nn(-c2cnn(C)c2)c1=O ): 96.1%

* * *

System: 653999-131-R-J2-PDC complex spheroids, growth % test/control
procedure_details: Anticancer human tumor 653999-131-R-J2-PDC cell line growth inhibition [AhR];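 note: spheroids exposed to agents for seven days; 100% = DMSO vehicle control viability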
experimental_conditions: second compound 0.1 µM; first compound 0.1 µM; stronger effect = lower value
recorded_metric: viability, T/C (%)
API: value field is a number in %; no unit string.

compound	unit	viability, T/C
CC[C@@]1(O)C(=O)OCc2c1cc1n(c2=O)Cc2cc3c(CN(C)C)c(O)ccc3nc2-1 + CC(CO)NC(=O)c1cc(-c2ccc(Cl)cc2)nn(-c2cnn(C)c2)c1=O	%	38.1
Cn1ncnc1C1c2n[nH]c(=O)c3cc(F)cc(c23)NC1c1ccc(F)cc1 (configuration not stated) + Cc1ccccc1N=Nc1ccc(NC(=O)c2ccnn2C)c(C)c1	%	98
O=C(c1cc(Cc2n[nH]c(=O)c3ccccc23)ccc1F)N1CCN(C(=O)C2CC2)CC1 + Cc1cncc(-c2nc(NCCc3c[nH]c4ccccc34)c3ncn(C(C)C)c3n2)c1	%	101
CC1(C)CCC(CN2CCN(c3ccc(C(=O)NS(=O)(=O)c4ccc(NCC5CCOCC5)c([N+](=O)[O-])c4)c(Oc4cnc5[nH]ccc5c4)c3)CC2)=C(c2ccc(Cl)cc2)C1 + Cc1cncc(-c2nc(NCCc3c[nH]c4ccccc34)c3ncn(C(C)C)c3n2)c1	%	93.8
NS(=O)(=O)OCC1CC(n2ccc3c(NC4CCc5ccccc54)ncnc32)CC1O (configuration not stated) + Cc1ccccc1N=Nc1ccc(NC(=O)c2ccnn2C)c(C)c1	%	120
CC1COCCN1c1cc(-c2ccnn2C)c2ccnc(-c3ccn[nH]3)c2n1 (configuration not stated) + CC(CO)NC(=O)c1cc(-c2ccc(Cl)cc2)nn(-c2cnn(C)c2)c1=O	%	60.2
CC1COCCN1c1cc(-c2ccnn2C)c2ccnc(-c3ccn[nH]3)c2n1 (configuration not stated) + Cc1ccccc1N=Nc1ccc(NC(=O)c2ccnn2C)c(C)c1	%	59.7
Nc1ncn(C2CC(O)C(CO)O2)c(=O)n1 (configuration not stated) + CC(CO)NC(=O)c1cc(-c2ccc(Cl)cc2)nn(-c2cnn(C)c2)c1=O	%	89.4

Briefly, viability, T/C measured for COc1ccc([C@@H](O)c2cc(-c3ncnc4cc(N5CCOCC5)ccc34)c(F)cc2Cl)nn1 + Cc1ccccc1N=Nc1ccc(NC(=O)c2ccnn2C)c(C)c1 : 105

The measured viability, T/C associated with CC1COCCN1c1cc(C2(S(C)(=N)=O)CC2)nc(-c2ccnc3[nH]ccc23)n1 (configuration not stated) + Cc1ccccc1N=Nc1ccc(NC(=O)c2ccnn2C)c(C)c1 reads 90.1

viability, T/C measured on CC[C@@]1(O)C(=O)OCc2c1cc1n(c2=O)Cc2cc3c(CN(C)C)c(O)ccc3nc2-1 + Cc1ccccc1N=Nc1ccc(NC(=O)c2ccnn2C)c(C)c1 = 45.9

// sample Nc1ccccc1NC(=O)c1ccc(CNC(=O)OCc2cccnc2)cc1 + Cc1cncc(-c2nc(NCCc3c[nH]c4ccccc34)c3ncn(C(C)C)c3n2)c1 , its viability, T/C was 86.2
